Origin of the recorded values: patent US20240368263A1

Molecular target: T1, Fas/TNFSF6 (R&D Systems, cat. no. 126-FL/CF) (UniProt P48023 134-281)
T1 sequence (looked up): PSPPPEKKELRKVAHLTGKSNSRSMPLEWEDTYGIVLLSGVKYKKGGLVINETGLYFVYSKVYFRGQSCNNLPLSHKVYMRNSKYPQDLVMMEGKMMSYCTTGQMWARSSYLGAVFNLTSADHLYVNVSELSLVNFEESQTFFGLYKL
Assay: ELISA, antigen coated at 1 µg/ml, Fab titrated

| BINDER | binding result |
| --- | --- |
| Clone 17L Fab (Fab, V domains shown, Fab) VH: QVQLVQSGAEVKKPGASVKVSCKASGFDIQDTYMHWVRQAPGQGLEWMGRIDPASGHLKYDPKFQVRVTMTRDTSTSTVYMELSSLRSEDTAVYYCARSGGLPDMWGQGTTVTVSS VL: EIVLTQSPGTLSLSPGERATLSCRASSSVSYMYWYQQKPGQAPRLLIYATSNLASGIPDRFSGSGSGTDFTLTISRLEPEDFAVYYCQQWQGNPRTFGGGTKLEIK | no binding |
| Clone H2-2 Fab (Fab, V domains shown, Fab; also called Clone 112-2) VH: QVQLVQSGAEVKKPGASVKVSCKASGFDIQDTYMHWVRQAPGQGLEWMGRIDPASGHSKYDPKFQVRATITTDTSASTAYLQLSSLRSEDTAVYYCARSGGLPDFWGQGTTVTVSS VL: EIVLTQSPGTLSLSPGERATLSCRASSSVSYMYWYQQKPGQAPRLLIYATSNLASGIPDRFSGSGSGTDFTLTISRLEPEDFAVYYCQQWSGNPRTFGGGTKLEIK | no binding |
| Clone E1 Fab (Fab, V domains shown, Fab) VH: QVQLVQSGAEVKKPGASVKVSCKASGFDIQDTYMHWVRQAPGQGLEWMGRIEPASGHLKYDPKFQERVTMTRDTSTSTVYMELSSLRSEDTAVYYCARSGGLPDKWGQGTTVTVSS VL: EIVLTQSPGTLSLSPGERATLSCGASSSVSYMYWYQQKPGQAPRLLIYATSNLASGIPDRFSGSGSGTDFTLTISRLEPEDFAVYYCQQWEGNPRTFGGGTKLEIK | no binding |
